Measured log10 of IC50 accompanies every entry in the list below.
- System: HCT-116 (colon cancer)
- experimentalDetails: MTT cell viability assay, HCT-116
- Assay type: cell-based, human
- runConditions: Homo sapiens, HCT-116; MTT, 72 h
The figures below represent log10 of IC50, where IC50 is stated in µM.

Guide cases for log10 of IC50, answers given:
* Cc1cc(S(=O)(=O)NC(N)=NN=C(C=Cc2ccccc2O)c2ccccc2)c(SCc2ccccc2)cc1Cl | 1.04
* Cc1cc(S(=O)(=O)NC(N)=NN=C(C=Cc2ccccc2O)c2ccccc2)c(SCc2ccc(Cl)cc2)cc1Cl | 1.26
* Cc1cc(S(=O)(=O)NC(N)=NN=C(C=Cc2ccccc2O)c2ccccc2)c(SCc2ccccc2Cl)cc1Cl | 0.95

Quickly give me recorded log10 of IC50 for Cc1cc(S(=O)(=O)NC(N)=NN=C(C=Cc2ccc(O)cc2)c2ccccc2)c(SCc2cccc(Cl)c2)cc1Cl 1.08

Quickly give me recorded log10 of IC50 for Cc1cc(S(=O)(=O)NC(N)=NN=C(C=Cc2ccc(O)cc2)c2ccccc2)c(SCc2ccccc2)cc1Cl 0.95

Quickly give me recorded log10 of IC50 for Cc1ccc(CSc2cc(Cl)c(C)cc2S(=O)(=O)NC(N)=NN=C(C=Cc2ccc(Cl)cc2)c2ccccc2)cc1 2.26

----------
- Tested on: MCF-7 (breast cancer)
- experimentalDetails: MTT cell viability assay, MCF-7
- Type: cell-based, human
- runConditions: Homo sapiens, MCF7; MTT, 72 h
readoutName: pIC50
Scale explanation: pIC50 corresponds to minus log10 of a concentration expressed in moles per litre.

* Cc1cc(S(=O)(=O)NC(N)=NN=C(C=Cc2ccccc2O)c2ccccc2)c(SCc2ccccc2)cc1Cl | 4.74

Quickly give me recorded pIC50 for Cc1cc(S(=O)(=O)NC(N)=NN=C(C=Cc2ccc([N+](=O)[O-])cc2)c2ccccc2)c(SCc2ccccc2)cc1Cl 3.43

Quickly give me recorded pIC50 for COc1ccc(C=CC(=NN=C(N)NS(=O)(=O)c2cc(C)c(Cl)cc2SCc2ccc(C)cc2)c2ccccc2)cc1 3.82

Quickly give me recorded pIC50 for Cc1ccc(CSc2cc(Cl)c(C)cc2S(=O)(=O)NC(N)=NN=C(C=Cc2ccccc2O)c2ccccc2)cc1 4.85

----------
- System: MCF-7 (breast cancer)
- experimentalDetails: MTT cell viability assay, MCF-7
- Assay type: cell-based, human
- runConditions: Homo sapiens, MCF7; MTT, 72 h
readoutName: pIC50
Scale explanation: pIC50 corresponds to minus log10 of a concentration expressed in moles per litre.

* Cc1cc(S(=O)(=O)NC(N)=NN=C(C=Cc2ccc(O)cc2)c2ccccc2)c(SCc2ccccc2C)cc1Cl | 4.89
* Cc1cc(S(=O)(=O)NC(N)=NN=C(C=Cc2ccccc2)c2ccccc2)c(SCc2ccccc2)cc1Cl | 3.89
* Cc1cccc(CSc2cc(Cl)c(C)cc2S(=O)(=O)NC(N)=NN=C(C=Cc2ccccc2O)c2ccccc2)c1 | 4.70

Quickly give me recorded pIC50 for Cc1cc(S(=O)(=O)NC(N)=NN=C(C=Cc2ccccc2O)c2ccccc2)c(SCc2cccc(Cl)c2)cc1Cl 4.89

----------
- Tested on: HCT-116 (colon cancer)
- experimentalDetails: MTT cell viability assay, HCT-116
- Type: cell-based, human
- runConditions: Homo sapiens, HCT-116; MTT, 72 h
Measured IC50 accompanies every entry in the list below.
Quick reminder: number only, in µM, skip the unit.

Guide cases for IC50, answers given:
* Cc1cc(S(=O)(=O)NC(N)=NN=C(C=Cc2ccc(Cl)cc2)c2ccccc2)c(SCc2ccccc2)cc1Cl [Compound 12] | 113
* Cc1cc(S(=O)(=O)NC(N)=NN=C(C=Cc2ccc(O)cc2)c2ccccc2)c(SCc2ccccc2Cl)cc1Cl [Compound 25] | 15

Provide IC50, system HCT-116 (colon cancer), entry COc1ccc(C=CC(=NN=C(N)NS(=O)(=O)c2cc(C)c(Cl)cc2SCc2ccc(Cl)cc2)c2ccccc2)cc1 [Compound 31] 365

Provide IC50, system HCT-116 (colon cancer), entry Cc1cccc(CSc2cc(Cl)c(C)cc2S(=O)(=O)NC(N)=NN=C(C=Cc2ccccc2O)c2ccccc2)c1 [Compound 16] 17
